- Test system: HBEGF locus
- Assay type: cell-based, human
- protocolConditions: high-throughput screen of dXR repression of the HBEGF gene; change in abundance of each domain in the library before and after diphtheria toxin selection
Assignment: determine reported Log2 (fold change) for the given molecules.

For this molecule ( DOMAIN_7184 (protein, Microcaecilia unicolor) TQMQVKFDDIAVSFSQEEWKYLDEEQKELYREVMKENYQILISLGTGSSTTPKIISHIERGEEPYIRDEPVLVERKTGKSS ), measured Log2 (fold change) is 2.2019

The reported Log2 (fold change) of the molecule DOMAIN_6697 (protein, listed as Podarcis muralis) GSVSFDEVSVRFSNEEWALLDPGQRALYEEVMEEIREMMTSVGDVSEFLTEGEQSEPSREGAEEQKEQRKQRVQVGTYRKE was 2.6712
